Biological target: PcpI (Pseudomonas putida)
Construct: gene E6B08_28110; LBD (amino acids 38–174)
Sequence (A0A4D6XHR0 38-174): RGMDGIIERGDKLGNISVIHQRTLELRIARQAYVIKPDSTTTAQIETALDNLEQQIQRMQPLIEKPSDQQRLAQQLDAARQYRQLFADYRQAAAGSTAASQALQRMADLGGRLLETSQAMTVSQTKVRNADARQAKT
Assay: isothermal titration calorimetry; DSF Tm shift […]°C
Type: binding
endpoint: pKd
// scale note: pKd = -log10(conc_M); give the bare number

Request: Provide value of pKd for this record tested with PcpI (Pseudomonas putida): O=C(O)c1ccccc1O [salicylate]
Response: 3.08

* * *

Target: PcpI (Pseudomonas putida, UniProt A0A4D6XHR0)
Construct: gene E6B08_28110; LBD (amino acids 38–174)
Sequence (A0A4D6XHR0 38-174): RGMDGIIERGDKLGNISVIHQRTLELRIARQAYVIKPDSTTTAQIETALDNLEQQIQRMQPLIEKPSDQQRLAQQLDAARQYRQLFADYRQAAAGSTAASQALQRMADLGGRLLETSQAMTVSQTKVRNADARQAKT
Test: isothermal titration calorimetry
Format: binding
endpoint: Kd (µM)
// note: answer is a bare numeric in µM

Request: Suppose we examine the compound O=C(O)c1ccccc1 [benzoate] ; what Kd value has been reported?
Response: 171

* * *

target: PcpI (Pseudomonas putida, UniProt A0A4D6XHR0); construct: gene E6B08_28110; LBD (amino acids 38–174); assay: isothermal titration calorimetry; assay type: binding; conditions: read-out: Kd
endpoint: Kd
Put your answer as a value accompanied by its unit after it.

Request: What value of Kd has been reported for the following compound? Cc1cccc(C(=O)O)c1 [3-methylbenzoate]
Response: 91 µM

* * *

molecular target: E6B08_RS28125 (solute binding protein); construct: recombinant from pET28b(+), without the predicted signal peptide; assay: isothermal titration calorimetry (and DSF); parameters: species or system Pseudomonas putida
Here the recorded Kd is given for each entry.

// solved cases for Kd follow
N=C(N)NCCC[C@H](N)C(=O)O [L-Arg]
29.5 µM
N[C@@H](Cc1c[nH]cn1)C(=O)O [L-His]
3.3 µM

Next molecule, please.
Request: Which measured Kd value corresponds to NCCC[C@H](N)C(=O)O [L-ornithine] ?
Response: 0.9 µM

This collection of values is drawn from paper PMC9543091.
